Test system: RPMI-8226 leukemia
assay_overview: NCI tumour cell line growth inhibition, 48 h; in the data active = GI50 below about 0.43 µM; inactive = the rest
Classes used: active, inactive

> print(dat)
                                   compound  category.label
1  O=C(Nc1ccc(Cl)cc1)Nc1ccc(Oc2nncc3ccccc23)cc1        inactive
2  CC(C)OP(=O)(OC(C)C)C([CH2][Sn]([CH3])([CH3])[Cl])P(=O)(OC(C)C)OC(C)C        inactive
3  CN1C(=O)/C(=C/c2c(Cl)[nH]c3ccccc23)c2ccccc21        inactive
4  O=C(O[C@H]1CN[C@H](C#Cc2cc3ncnc(Nc4ccc5c(cnn5Cc5ccccc5)c4)c3s2)C1)N1CCOCC1        inactive
5  Nc1cc(N)c2nc(-c3ccccc3)c(Sc3ccc(Cl)c(Cl)c3)nc2c1        inactive
6  O=C1/C(=C/c2ccc(O)c(O)c2)COc2ccc(-c3ccccc3)cc21          active
7  CCOC(=O)C1=C(N)CCC1C (configuration not stated)        inactive

* * *

Test system: RXF 393 renal
assay_overview: NCI tumour cell line growth inhibition, 48 h
Response key: T means TGI >= 20 µM; F means TGI < 20 µM.

> print(dat)
                                    molecule  target.entity  category.label
 1  CCCCCCCCCCCc1noc2c1C(=O)C(O)CC2 (stereo not given)  RXF 393 renal               T
 2  O=C(Nc1ccc(Cl)cc1)Nc1ccc(Oc2nncc3ccccc23)cc1  RXF 393 renal               F
 3  O=S(=O)(O)c1ccc(N=Nc2ccc(N=Nc3c(O)ccc4ccccc34)c(S(=O)(=O)O)c2)cc1  RXF 393 renal               T
 4    O=C(O)c1c(-c2ccccc2)c(=O)[nH]c2ccccc12  RXF 393 renal               T
 5  Cc1ncc(CO)c(C=NCCCCCCN=Cc2c(CO)cnc(C)c2[O-])c1[O-].[Cu+2]  RXF 393 renal               T
 6        N#Cc1ccc(Oc2nc3ccccc3nc2C(=O)O)cc1  RXF 393 renal               T
 7  COc1ccc2nc3c([N+](=O)[O-])ccc4c3c(c2c1)N(CCCN(C)C)C(=S)N4CCCN(C)C  RXF 393 renal               T
 8  C=C(Nc1ccc(OC)cc1OC)C(=O)Cc1cccc[n+]1[O-]  RXF 393 renal               T
 9  Cc1ccc(S(=O)(=O)NC2=NCCN2C(=S)SN2CCn3c2nsc3=S)cc1  RXF 393 renal               T
10  CCN(CC)CCNC(=O)c1cn2ncnc(Oc3ccc(NC(=O)Nc4ccc(Cl)c(C(F)(F)F)c4)cc3)c2c1C  RXF 393 renal               F
11  C=C(CN(C)C)C(=O)c1ccc(OC2OC(COC(C)=O)C(OC(C)=O)C(OC(C)=O)C2OC(C)=O)cc1 (stereo not given)  RXF 393 renal               F
12   N#CC(C#N)N=Nc1ccc(-c2nc3ccccc3[nH]2)cc1  RXF 393 renal               T
13  CNN1C(=O)c2c(N)c(C#N)c(-c3ccccc3)c(-c3ccccc3)c2C1=O  RXF 393 renal               T
14  Clc1ccc(Nc2nn3c(CCCCCCCCc4nnc5sc(Nc6ccc(Cl)cc6)nn45)nnc3s2)cc1  RXF 393 renal               T
15  CCCCCc1cc2cc3c(c(O)c2c(=O)[nH]1)C1(CC3)C(O)=c2c(=O)c3c(=O)cc(OC)c(=O)c=3c(=O)c2=C1O (stereo not given)  RXF 393 renal               F
16  COc1ccc(N2C(=O)CC(=O)N(C(=O)CCCCCCCCC(=O)N3C(=O)CC(=O)N(c4ccc(OC)cc4)C3=S)C2=S)cc1  RXF 393 renal               T
17  Cc1cnc(Cl)nc1C(C#N)c1nc2ccccc2s1 (stereo not given)  RXF 393 renal               T
18  O=C1OC(c2cccc(C(F)(F)F)c2)c2ccc3ccccc3c21 (stereo not given)  RXF 393 renal               T
19        O=C(N=Nc1ccc(Br)cc1)NNc1ccc(Br)cc1  RXF 393 renal               T

* * *

System: PC-3 prostate
assay_overview: NCI tumour cell line growth inhibition, 48 h
Measured TGI values are reported for all entries that follow.

molecule	TGI
CC1C2C=CC1C(c1c3ccc(=O)c(O)c-3oc3c(O)c(O)ccc13)C2C(=O)O (stereo unspecified)	> 100 µM
CSCCC(NC(=O)CNC(=O)C(CC(=O)O)NC(=O)C(NC(=O)C(NC(=O)C(NC(=O)CNC(=O)C(CCC(N)=O)NC(=O)C(CCSC)NC(=O)C(CC(=O)O)NC(=O)C(C)NC(=O)C(C)NC(=O)C(NC(=O)C(CO)NC(=O)C(N)CC(C)C)C(C)O)C(C)C)C(C)C)C(C)O)C(=O)NC(C)C(=O)NC(CO)C(=O)NCC(=O)NC(CC(C)C)C(=O)NC(CC(=O)O)C(=O)NC(CCCCN)C(=O)NC(CC(=O)O)C(=O)NC(Cc1ccc(O)cc1)C(=O)NC(CC(C)C)C(=O)NC(CCCCN)C(=O)N1CCCC1C(=O)NC(CC(=O)O)C(=O)NC(CC(=O)O)C(=O)O (stereo unspecified)	> 82.5 µM
CN1C(=O)N(C)C2C1NN=c1s/c(=C\c3ccccc3F)c(=O)n12 (stereo unspecified)	> 100 µM
COc1cc(/C=C/c2ccc(/C=C/c3cc(OC)c(OC)c(OC)c3)cc2)cc(OC)c1OC	> 100 µM
OCC#Cc1ccccc1C#CCCCCCCC#Cc1ccccc1C#CCO	33.3 µM
COP1(=O)OCc2cnccc2O1 (stereo unspecified)	> 100 µM

* * *

System: KM12 colon
assay_overview: NCI tumour cell line growth inhibition, 48 h; in the data active = GI50 below about 0.43 µM; inactive = the rest
Possible outcomes: True for active, False for inactive

> print(dat)
                                   compound  target.entity  category.label
1  CC(C)CCC[C@@H](C)[C@H]1CCC2C3=CCn4c(=O)ccc(=O)n4C3CC[C@@]21C (stereo not given in full)     KM12 colon           False
2  CCOC(=O)c1ccc2[nH]c(O)c(C(=Nc3ccc(N(C)C(=O)CN4CCN(C)CC4)cc3)c3ccccc3)c2c1     KM12 colon            True
3  Nc1cc(N)c2nc(-c3ccccc3)c(Sc3ccc(Cl)c(Cl)c3)nc2c1     KM12 colon           False
4  CC(=O)CC(=O)Nc1c(C)[c]([Hg][O]C(C)=O)c(C)[c]([Hg][O]C(C)=O)[c]1[Hg][O]C(C)=O     KM12 colon           False
5             Oc1ccccc1N=Cc1c(O)ccc2ccccc12     KM12 colon           False

* * *

# TGI listing for each entry below
Tested on: HOP-18 NSCLC
assay_overview: NCI tumour cell line growth inhibition, 48 h
readout: TGI

> print(dat)
                                   molecule  readout  measured.result
1  Cc1ccccc1C1=C/C(=C(\SS/C(C(=O)c2ccc(OCC(=O)O)c(Cl)c2Cl)=C2\C=C(c3ccccc3C)SS2)C(=O)c2ccc(OCC(=O)O)c(Cl)c2Cl)SS1      TGI          23.3 µM
2  C=C(Nc1ccc(OC)cc1OC)C(=O)Cc1cccc[n+]1[O-]      TGI         > 100 µM
3  COc1ccc(/C(Cl)=C(\C=O)c2ccc(Cl)c(Cl)c2)cc1      TGI          28.3 µM
4  COS(=O)(=O)OCCC(NC(=O)OCc1ccccc1)C(=O)OCc1ccccc1 (centres undefined)      TGI         > 100 µM
5  N#Cc1cccc(N2C(=O)c3ccc(C(=O)c4ccc5c(c4)C(=O)N(c4cccc(C#N)c4)C5=O)cc3C2=O)c1      TGI         > 100 µM
6  O=C1OC(c2cccc(C(F)(F)F)c2)c2ccc3ccccc3c21 (centres undefined)      TGI         > 100 µM
7  O=c1c2c([nH]c3cc4c(cc13)OCO4)-c1ccccc1C2      TGI          68.1 µM
8  Cc1ncc(CO)c(C=NCCCCCCN=Cc2c(CO)cnc(C)c2[O-])c1[O-].[Cu+2]      TGI         > 100 µM
9  Cc1cn(C2CC(n3cncn3)C(C(C)O)O2)c(=O)[nH]c1=O (centres undefined)      TGI         > 100 µM

* * *

System: SW-620 colon
assay_overview: NCI tumour cell line growth inhibition, 48 h
Listed compounds paired with reported TGI
readout: TGI (µM)

> print(dat)
                                   compound  censoring.qualifier  measured.result
1  O=C(Nc1ccccc1Cl)c1cc(S(=O)(=O)Nc2n[nH]c(=O)n2-c2ccccc2)c(S)cc1Cl                    >              100
2     O=C(/C=C/c1c(O)ccc2ccccc12)c1ccccc1Cl                    =             57.1
3  CCCCCc1cc2cc3c(c(O)c2c(=O)[nH]1)C1(CC3)C(O)=c2c(=O)c3c(=O)cc(OC)c(=O)c=3c(=O)c2=C1O (stereo not given)                    =             3.31
4  CC1CN=C(N(C(=O)Nc2ccccc2)c2ccccc2)S1 (stereo not given)                    >              100
5  CCOC(=O)C(Cc1ccc([N+](=O)[O-])cc1)NC(=O)CC1c2ccccc2-c2ccccc21 (stereo not given)                    >              100

From: PubChem BioAssay (NCI)
